- Tested on: U2OS
- experimental_details: Incucyte cell viability with U2OS; also: unitless GR value; below 1 slowed growth and below 0 cell loss
- Format: toxicity, cell-based
- measurement_setup: human, 18 h, 10 µM, compound concentration 10 uM, replicate number 2
Readings of Growth Rate for the listed compounds

>  <compound>
C[C@@H]1OCC2(CCN(c3cnc(Sc4ccnc(N)c4Cl)c(N)n3)CC2)[C@@H]1N [BATOPROTAFIB]

>  <Growth Rate>
0.91

$$$$
>  <compound>
CNc1oc(-c2cccc3ccccc23)nc1C#N

>  <Growth Rate>
0.92

$$$$
>  <compound>
Clc1ccccc1C(c1ccccc1)(c1ccccc1)n1ccnc1 [CLOTRIMAZOLE]

>  <Growth Rate>
0.81

$$$$
